// reported pKd for each item listed
# targetDesc: S100A4 (Homo sapiens)
# Construct: made in house; host or cells: Escherichia coli BL21(DE3)
# Sequence (P26447 whole entry): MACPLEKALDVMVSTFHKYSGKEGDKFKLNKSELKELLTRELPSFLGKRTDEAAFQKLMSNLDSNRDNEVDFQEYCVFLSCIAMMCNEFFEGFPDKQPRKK
# method: Pull-down assay with immobilized protein and LSM libraries
# Format: binding
# assayConditions: H12 library; 1:1 binding assumed; read-out: Surface mapping KD (apparent)
pKd: −log10 of the molar value.
readout: pKd

>  <structureSmilesString>
CSCC[C@@H](CC(=O)N[C@H]1CCC[C@@H]1C(=O)N[C@H]1CCC[C@@H]1C(=O)N[C@H](CC(=O)N[C@H]1CCC[C@@H]1C(=O)N[C@H]1CCC[C@@H]1C(N)=O)Cc1ccccc1)NC(=O)[C@H]1CCC[C@@H]1NC(=O)[C@H]1CCC[C@@H]1N

>  <readout>
pKd

>  <numericResult>
3.52

$$$$
>  <structureSmilesString>
CC(C)[C@@H](CC(=O)N[C@H]1CCC[C@@H]1C(=O)N[C@H]1CCC[C@@H]1C(=O)N[C@H](CC(=O)N[C@H]1CCC[C@@H]1C(=O)N[C@H]1CCC[C@@H]1C(N)=O)Cc1ccccc1)NC(=O)[C@H]1CCC[C@@H]1NC(=O)[C@H]1CCC[C@@H]1N

>  <readout>
pKd

>  <numericResult>
4.02

$$$$
>  <structureSmilesString>
N=C(N)NCCC[C@@H](CC(=O)N[C@H]1CCC[C@@H]1C(=O)N[C@H]1CCC[C@@H]1C(=O)N[C@H](CC(=O)N[C@H]1CCC[C@@H]1C(=O)N[C@H]1CCC[C@@H]1C(N)=O)Cc1c[nH]c2ccccc12)NC(=O)[C@H]1CCC[C@@H]1NC(=O)[C@H]1CCC[C@@H]1N

>  <readout>
pKd

>  <numericResult>
4.02

$$$$
>  <structureSmilesString>
NC(=O)[C@H]1CCC[C@@H]1NC(=O)[C@H]1CCC[C@@H]1NC(=O)C[C@H](Cc1ccc(O)cc1)NC(=O)[C@H]1CCC[C@@H]1NC(=O)[C@H]1CCC[C@@H]1NC(=O)C[C@H](Cc1c[nH]c2ccccc12)NC(=O)[C@H]1CCC[C@@H]1NC(=O)[C@H]1CCC[C@@H]1N

>  <readout>
pKd

>  <numericResult>
3.82

$$$$
>  <structureSmilesString>
CC(C)[C@@H](CC(=O)N[C@H]1CCC[C@@H]1C(=O)N[C@H]1CCC[C@@H]1C(N)=O)NC(=O)[C@H]1CCC[C@@H]1NC(=O)[C@H]1CCC[C@@H]1NC(=O)C[C@H](CCCNC(=N)N)NC(=O)[C@H]1CCC[C@@H]1NC(=O)[C@H]1CCC[C@@H]1N

>  <readout>
pKd

>  <numericResult>
3.37

$$$$
>  <structureSmilesString>
CC(C)C[C@@H](CC(=O)N[C@H]1CCC[C@@H]1C(=O)N[C@H]1CCC[C@@H]1C(N)=O)NC(=O)[C@H]1CCC[C@@H]1NC(=O)[C@H]1CCC[C@@H]1NC(=O)C[C@@H](NC(=O)[C@H]1CCC[C@@H]1NC(=O)[C@H]1CCC[C@@H]1N)C(C)C

>  <readout>
pKd

>  <numericResult>
3.72

$$$$
>  <structureSmilesString>
NC(=O)[C@H]1CCC[C@@H]1NC(=O)[C@H]1CCC[C@@H]1NC(=O)C[C@H](Cc1ccc(O)cc1)NC(=O)[C@H]1CCC[C@@H]1NC(=O)[C@H]1CCC[C@@H]1NC(=O)C[C@H](Cc1ccccc1)NC(=O)[C@H]1CCC[C@@H]1NC(=O)[C@H]1CCC[C@@H]1N

>  <readout>
pKd

>  <numericResult>
3.72

$$$$
